Target: TRPML2 (Homo sapiens, UniProt Q8IZK6)
Sequence (Q8IZK6 1-566): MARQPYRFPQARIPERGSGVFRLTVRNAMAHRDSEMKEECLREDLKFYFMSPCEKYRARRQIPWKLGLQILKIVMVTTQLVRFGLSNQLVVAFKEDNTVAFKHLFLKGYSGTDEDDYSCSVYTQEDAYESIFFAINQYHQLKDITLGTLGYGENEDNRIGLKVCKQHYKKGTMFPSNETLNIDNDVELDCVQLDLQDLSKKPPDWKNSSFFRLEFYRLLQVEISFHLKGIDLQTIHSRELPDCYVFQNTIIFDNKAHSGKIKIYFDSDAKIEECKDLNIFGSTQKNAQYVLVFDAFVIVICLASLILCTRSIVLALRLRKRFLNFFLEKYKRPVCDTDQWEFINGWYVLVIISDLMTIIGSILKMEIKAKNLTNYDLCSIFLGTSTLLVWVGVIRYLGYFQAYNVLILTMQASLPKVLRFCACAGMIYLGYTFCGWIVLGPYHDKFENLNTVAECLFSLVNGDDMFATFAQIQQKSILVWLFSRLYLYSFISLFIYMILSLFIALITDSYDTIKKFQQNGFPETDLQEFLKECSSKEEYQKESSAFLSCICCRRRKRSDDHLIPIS
Experiment: Fura-2 calcium imaging, HEK293 cells expressing TRPML2
Format: cell-based
Conditions: 10 µM
readout.kind: response in HEK293 cells expressing TRPML2

{"molecule": "O=S(=O)(NC1CCCCC1N1CCOCC1)c1ccc(Cl)cc1 (stereo not shown)", "result": "elicited responses"}
{"molecule": "Cc1ccccc1S(=O)(=O)c1c(C)cc(C)n(C(C)C)c1=O", "result": "elicited responses"}
{"molecule": "Cc1ccc(N2CCN(S(=O)(=O)N3CCCCC3)CC2)c(C)c1", "result": "elicited responses"}

====

target: TRPML3 (Homo sapiens); assay: Whole-cell patch-clamp, HEK293 cells transiently transfected with TRPML3; assay type: cell-based; conditions: whole-cell, −80 mV
Sequence (Q8TDD5 whole entry): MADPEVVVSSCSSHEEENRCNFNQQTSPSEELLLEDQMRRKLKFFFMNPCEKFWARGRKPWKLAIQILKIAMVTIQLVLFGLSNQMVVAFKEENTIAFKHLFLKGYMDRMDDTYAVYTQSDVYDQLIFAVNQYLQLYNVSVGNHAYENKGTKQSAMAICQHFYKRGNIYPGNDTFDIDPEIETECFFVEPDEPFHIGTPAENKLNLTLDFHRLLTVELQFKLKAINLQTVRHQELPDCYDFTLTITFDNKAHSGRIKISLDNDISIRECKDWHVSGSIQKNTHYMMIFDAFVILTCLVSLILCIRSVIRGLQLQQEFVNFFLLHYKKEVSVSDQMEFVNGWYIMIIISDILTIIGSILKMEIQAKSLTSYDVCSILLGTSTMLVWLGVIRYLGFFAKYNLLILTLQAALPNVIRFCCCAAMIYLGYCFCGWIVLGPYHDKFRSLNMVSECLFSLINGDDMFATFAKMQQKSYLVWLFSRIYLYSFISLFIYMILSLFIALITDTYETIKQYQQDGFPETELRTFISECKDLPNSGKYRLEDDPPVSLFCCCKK
readout.kind: average current density relative to constitutively active TRPML3 A419P

{"compound": "CC1=CC(C)(C)N(C(=O)CN2C(=O)c3ccccc3C2=O)c2ccccc21", "result": "Stronger responses"}
{"compound": "Cc1ccc(N2CCN(S(=O)(=O)N3CCCCC3)CC2)c(C)c1", "result": "Stronger responses"}
{"compound": "O=S(=O)(NC1CCCCC1N1CCOCC1)c1ccc(Cl)cc1 (stereo not drawn)", "result": "Stronger responses"}

====

Measured ⊗F340/F380 (Control) accompanies every entry in the list below.
system: YFP-expressing HEK293 cells; assay: Fura-2 calcium imaging, YFP-expressing HEK293 cells; type: cell-based; settings: mean ±SEM (n≥3)
readout.kind: ⊗F340/F380 (Control)

{"compound": "O=S(=O)(NC1CCCCC1N1CCOCC1)c1ccc(Cl)cc1 (stereo not drawn) [SF-21]", "system.tested": "YFP-expressing HEK293 cells", "numeric.value": 0.033}
{"compound": "CCOc1ccc(S(=O)(=O)NC(C)(C)C)cc1-c1nc(=O)c2c([nH]1)c(C(C)(C)C)nn2C [SN-1]", "system.tested": "YFP-expressing HEK293 cells", "numeric.value": 0.005}
{"compound": "Cc1ccc(N2CCN(S(=O)(=O)N3CCCCC3)CC2)c(C)c1 [SF-41]", "system.tested": "YFP-expressing HEK293 cells", "numeric.value": 0.015}
{"compound": "O=S(=O)(Nc1ccccc1N1CCOCC1)c1ccc(Cl)s1 [SF-23]", "system.tested": "YFP-expressing HEK293 cells", "numeric.value": 0.005}
{"compound": "CCOc1ccc(S(=O)(=O)N2CCCCCC2)c2ccccc12 [SF-31]", "system.tested": "YFP-expressing HEK293 cells", "numeric.value": "−0.011"}
{"compound": "Cc1ccc(S(=O)(=O)Nc2ccccc2-c2ccccc2)cc1 [SF-24]", "system.tested": "YFP-expressing HEK293 cells", "numeric.value": 0.016}
